All values here come from patent US20230167182A1.

Attribute: kon
Target: T1, recombinant human IL6R-his (human, UniProt P08887 20-365)
T1 construct: In house made; the entry includes the C-terminal His tag; also called human IL6R-his protein
T1 sequence: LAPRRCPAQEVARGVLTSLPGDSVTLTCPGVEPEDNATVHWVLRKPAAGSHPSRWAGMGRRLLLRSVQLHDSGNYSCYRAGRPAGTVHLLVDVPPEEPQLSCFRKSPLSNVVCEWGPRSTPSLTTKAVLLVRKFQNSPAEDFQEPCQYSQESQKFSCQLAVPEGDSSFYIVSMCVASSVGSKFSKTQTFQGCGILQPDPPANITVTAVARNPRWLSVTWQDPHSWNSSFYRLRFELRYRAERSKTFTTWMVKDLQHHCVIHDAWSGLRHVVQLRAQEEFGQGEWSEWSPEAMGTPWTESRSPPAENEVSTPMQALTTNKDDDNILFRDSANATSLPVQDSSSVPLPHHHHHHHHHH
Assay: SPR Biacore T200; mAb captured by anti-mouse IgG on CM5, antigen in flow, 1:1 fit
Entry rule: numbers only, all in M⁻¹ s⁻¹.

Known results for binders:
BINDER	EXPERIMENTAL ENDPOINT	DISPLAY UNIT	REPORTED RESULT
mouse anti-IL6R monoclonal antibody 1B5 (antibody, V domains shown, Mouse hybridoma mAb) VH: QVQLQQPGAELVKPGASVKLSCKASGYTFTSYWMHWVKQRPGQGLEWIGEINPSNGRTNYNENFKSKATLTVDKSSSTAYMQLSSLTSEDSAVYYCARLNTHYVFDYWGQGTTLTVSS VL: EIVLTQSPTILAASPGEKITFTCSVSSSISSNYLHWYQQKPGFSPKLLIYRTSNLASGVPARFSGSGSGTSYSLTIGTMEAEDVATYYCQQGSGIPFTFGSGTKLEIK	kon	M⁻¹ s⁻¹	141000
mouse anti-IL6R monoclonal antibody 1D4 (antibody, V domains shown, Mouse hybridoma mAb) VH: QVQLQQPGAELVKPGASVKLSCKASGYTFTSYWMHWVKVRPGQGLEWIGEINPTNGRTNYNEDFKSKATLTVNSSSSTAYMQLSSLTSEDSAVYYCARLNTHYVFDYWGQGTTLTVSS VL: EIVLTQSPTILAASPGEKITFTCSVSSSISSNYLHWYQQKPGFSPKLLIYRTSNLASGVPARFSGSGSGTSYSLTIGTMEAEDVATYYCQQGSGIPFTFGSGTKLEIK	kon	M⁻¹ s⁻¹	138000

--- query ---
*Q* For the binder mouse anti-IL6R monoclonal antibody 1H7 (antibody, V domains shown, Mouse hybridoma mAb) VH: QVQLQQPGTELVKPGASVKLSCKASGYTFTNYWMHWVKQRPGQGLDWIGEINPTNGRTNYNENFKSKATLTVDKSSSTAYMQLSSLTSEDSAVYYCARLNTHYVFDSWGQGTTLTLSS VL: EIVLTQSPTTLAASPGEKITFTCSVSSSISSNYLHWYQQKPGFSPKLLISRTSTLASGVPARFSGSGSGTSYSLTIGTMEAEDVATYYCQQGSGIPFTFGSGTKLELK , give its measured kon value.
*A* 153000
